ASSAY_COMMENT: Primary fluorescence-based thiol-reactive (MSTI) qHTS assay for identification of artifact compounds. (AID 1845221); also: nearly all actives have a fitted effect of over 65% in size
DETAILS: MSTI thiol-reactivity probe, 1 h; series mostly up to 53.8 µM
Results filed as inconclusive are left out. Activity calls are given as the source filed them. Calls follow the shape of the dose curve; as a rule, active = well fitted inhibition curve with a large enough effect; inconclusive = small, poorly fitted or top-dose-only effect; inactive = no such curve, though single readings can be large or run the other way.
Respond with a class label; see active, inactive

These recorded examples may help you get a feel for the data.
CC(=C/C(=O)O)/C=C/[C@]1(O)[C@@]2(C)CO[C@]1(C)C[C@H](O[C@@H]1O[C@H](CO)[C@@H](O)[C@H](O)[C@H]1O)C2; active
CC(C(=O)O)C1CCC2(C)C3C(=O)C=C4C(CCC(=O)C4(C)C)C3(C)CCC12C (centres undefined); inactive
CC1(C)CC[C@]2(C(=O)O[C@@H]3O[C@H](CO)[C@@H](O)[C@H](O)[C@H]3O)CC[C@]3(C)C(=CCC4[C@@]5(C)C[C@@H](O)[C@H](O)[C@@](C)(CO)C5CC[C@]43C)C2C1 (some centres undefined); inactive

Req: I would be grateful if you could indicate the recorded call for `CCOC(=O)c1ccc(N(C)c2csc(-c3ccccc3)n2)cc1` .
Resp: inactive
